tested on: CCRF-CEM; assay: Cytotoxicity against human CCRF-CEM cells after 72 hrs by MTT assay; type: functional; details: read-out: LC50 (the source's name)
Quantity Measured: CC50

## Task Answer with CC50 of CSc1nc(NCCCCCO)c2cccnc2n1 measured for CCRF-CEM.
## Result > 100 µM

## Task State CC50 (CCRF-CEM) of CSc1nc(NCCCCc2ccccc2)c2ccccc2n1 .
## Result > 100 µM

## Task For CCRF-CEM, give the measured CC50 of the entry COc1ccc(CNc2nc(SC)nc3ccccc23)cc1
## Result > 100 µM

## Task State recorded CC50 with CCRF-CEM, entry Sc1nc(NCc2ccccc2)c2ccccc2n1 , no comment.
## Result > 100 µM

## Task Find CC50 for CSc1ccc(CNc2nc([SeH])nc3ccccc23)cc1 on CCRF-CEM and write it down.
## Result > 100 µM

----------
assay: Cytotoxicity against human BEAS2B cells after 72 hrs by MTT assay; type: cell-based, BEAS-2B; settings: beas-2b, 72 h
Form field: LC50 (one value per entry).

- Chemical Smiles: "COc1ccc(CNc2nc(SC)nc3ccccc23)cc1"
  LC50: "> 100 µM"
- Chemical Smiles: "CSc1nc(NCCc2ccccc2)c2ccccc2n1"
  LC50: "> 100 µM"
- Chemical Smiles: "CCCCC[Se]c1nc(NCc2ccc(SC)cc2)c2ccccc2n1"
  LC50: "> 100 µM"
- Chemical Smiles: "CCCCC[Se]c1nc([Se]CCCCC)c2ccccc2n1"
  LC50: "> 100 µM"
- Chemical Smiles: "C[Se]c1nc(N)c2ccccc2n1"
  LC50: "85.52 µM"
- Chemical Smiles: "CCCCCSc1nc(O)c2ccccc2n1"
  LC50: "> 100 µM"
- Chemical Smiles: "CSc1ccc(CNc2nc([SeH])nc3ccccc23)cc1"
  LC50: "> 100 µM"
- Chemical Smiles: "CCCCC[Se]c1nc(NCc2ccccc2)c2ccccc2n1"
  LC50: "> 100 µM"
- Chemical Smiles: "CSc1nc(NCCCCCO)c2ccccc2n1"
  LC50: "> 100 µM"
- Chemical Smiles: "CSc1nc(NCc2ccc([Se]C)cc2)c2ccccc2n1"
  LC50: "> 100 µM"

## Task Answer with the recorded LC50 of COc1ccc(CNc2nc([SeH])nc3ccccc23)cc1 only.
## Result > 100 µM

## Task Look up and report measured LC50 for this entry: Nc1nc([SeH])nc2ccccc12
## Result > 100 µM

## Task Indicate the recorded LC50 value for this molecule: C[Se]c1nc(NCc2ccccc2)c2ccccc2n1
## Result 78.3 µM

----------
assay: Cytotoxicity against human HTB-54 cells after 72 hrs by MTT assay; type: functional; conditions: HTB-54, 72 h, read-out: LC50 (the source's name)
Quantity Measured: CC50

Record excerpt, results attached:
- Molecule: "CCCCC[Se]c1nc(N)c2ccccc2n1"
  CC50: "> 100 µM"
- Molecule: "[SeH]c1nc(NCc2ccccc2)c2ccccc2n1"
  CC50: "> 100 µM"
- Molecule: "CSc1nc(NCCCCCO)c2ccccc2n1"
  CC50: "> 100 µM"
- Molecule: "COc1ccc(CNc2nc([Se]C)nc3ccccc23)cc1"
  CC50: "> 100 µM"

## Task Complete the entry with CC50 for COc1ccc(CNc2nc(SC)nc3ncccc23)cc1
## Result > 100 µM

## Task Item CSc1nc(NCCCc2ccccc2)c2ccccc2n1 : provide CC50
## Result > 100 µM

## Task Specify measured CC50 for Sc1nc(NCc2ccccc2)c2ccccc2n1 .
## Result > 100 µM

## Task Give me measured CC50, please, for this molecule: CCCCCSc1nc(NCc2ccc([Se]C)cc2)c2ccccc2n1
## Result 80.2 µM

## Task Indicate its recorded CC50; the molecule in question is C[Se]c1nc(N)c2cccnc2n1
## Result > 100 µM

----------
assay: Cytotoxicity against human 184B5 cells after 72 hrs by MTT assay; format: cell-based; details: 184b5, 72 h
Quantity Measured: TGI

Below are worked cases with known answers.
- Chemical Smiles: "Sc1nc(NCc2ccccc2)c2ccccc2n1"
  TGI: "> 100 µM"
- Chemical Smiles: "[SeH]c1nc([SeH])c2cccnc2n1"
  TGI: "8.26 µM"

Shifting focus to the compound that follows.
## Task Tell me measured TGI for CCCCC[Se]c1nc(NCc2ccc(SC)cc2)c2ccccc2n1 please.
## Result > 100 µM

----------
test system: MCF7; test: Cytotoxicity against human MCF7 cells after 72 hrs by MTT assay; format: functional; details: MCF7, 72 h
Quantity Measured: LC50

## Task Specify measured LC50 for [SeH]c1nc([SeH])c2cccnc2n1 .
## Result 82.7 µM

----------
assay: Cytotoxicity against human 184B5 cells after 72 hrs by MTT assay; format: cell-based; details: 184b5, 72 h
Quantity Measured: LC50

Please review the following examples before continuing.
- Compound: "C[Se]c1nc([Se]C)c2ccccc2n1"
  Value Observed: "> 100 µM"
- Compound: "[Se]=C=NCc1ccccc1 [BENZYLISOSELENOCYANATE]"
  Value Observed: "74.86 µM"
- Compound: "[SeH]c1nc([SeH])c2ccccc2n1"
  Value Observed: "6.63 µM"

## Task Identify measured LC50 corresponding to Sc1nc(NCc2ccccc2)c2ccccc2n1
## Result > 100 µM

## Task Return the recorded LC50 value; entry: [SeH]c1nc(NCc2ccccc2)c2ccccc2n1
## Result > 100 µM

## Task Return the recorded LC50 value; entry: C[Se]c1nc(NCc2ccccc2)c2ccccc2n1
## Result 73.66 µM

----------
assay: Cytotoxicity against human 184B5 cells after 72 hrs by MTT assay; format: cell-based; settings: 184b5, 72 h
Quantity Measured: TGI

- Chemical Smiles: "CSc1nc(NCCCCCO)c2ccccc2n1"
  Value Observed: "> 100 µM"
- Chemical Smiles: "CSc1nc(NCc2ccccc2)c2cccnc2n1"
  Value Observed: "> 100 µM"
- Chemical Smiles: "C[Se]c1nc([Se]C)c2ccccc2n1"
  Value Observed: "> 100 µM"
- Chemical Smiles: "CSc1ccc(CNc2nc(SC)nc3ncccc23)cc1"
  Value Observed: "1.14 µM"

## Task Query TGI for CCCCC[Se]c1nc(N)c2ccccc2n1
## Result 43.6 µM

## Task Answer with the recorded TGI for the compound listed here: COc1ccc(CNc2nc([Se]C)nc3ccccc23)cc1
## Result > 100 µM

## Task Look up and report measured TGI for this entry: CSc1ccc(CNc2nc([Se]C)nc3ccccc23)cc1
## Result > 100 µM

----------
experiment: Cytotoxicity against human BEAS2B cells after 72 hrs by MTT assay; assay type: cell-based, BEAS-2B; conditions: BEAS2B cells
Quantity Measured: GI50 at 72 h (µM)
Provide the reading as a plain figure in µM.

Example entries begin here.
- Chemical Smiles: "Nc1nc([SeH])nc2ncccc12"
  Units Label: "µM"
  GI50 at 72 h: 5.89
- Chemical Smiles: "C[Se]c1nc(NCc2ccccc2)c2ccccc2n1"
  Units Label: "µM"
  GI50 at 72 h: 0.57
- Chemical Smiles: "CCCCC[Se]c1nc(N)c2cccnc2n1"
  Units Label: "µM"
  GI50 at 72 h: 16.3

## Task Return the recorded GI50 at 72 h value; entry: CSc1ccc(CNc2nc([Se]C)nc3ccccc23)cc1
## Result 35.9

## Task Indicate its recorded GI50 at 72 h; the molecule in question is CSc1nc(NCc2ccccc2)c2ccccc2n1
## Result 38.9

----------
experiment: Cytotoxicity against human BEAS2B cells after 72 hrs by MTT assay; format: cell-based, BEAS-2B; details: beas-2b, 72 h
Quantity Measured: LC50

Here's what some known entries look like.
- Compound: "[Se]=C=NCc1ccccc1 [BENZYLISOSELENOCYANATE]"
  LC50: "69.59 µM"
- Compound: "CSc1nc(NCCCCCO)c2cccnc2n1"
  LC50: "> 100 µM"
- Compound: "COc1ccc(CNc2nc(S)nc3ccccc23)cc1"
  LC50: "70.18 µM"
- Compound: "CSc1ccc(CNc2nc(SC)nc3ccccc23)cc1"
  LC50: "95.93 µM"
- Compound: "C[Se]c1nc(N)c2cccnc2n1"
  LC50: "> 100 µM"

## Task Please report LC50 for the following compound: CCCCC[Se]c1nc([Se]CCCCC)c2cccnc2n1
## Result > 100 µM

## Task Quick one: give measured LC50 for CSc1nc(Nc2ccccc2)c2ccccc2n1
## Result > 100 µM

----------
Below: a set of entries, each annotated with reported TGI.
experiment: Cytotoxicity against human BEAS2B cells after 72 hrs by MTT assay; format: cell-based, BEAS-2B; details: beas-2b, 72 h

- Chemical Smiles: "COc1ccc(CNc2nc([SeH])nc3ccccc23)cc1"
  TGI: "> 100 µM"
- Chemical Smiles: "CSc1nc(NCc2ccc([Se]C)cc2)c2ccccc2n1"
  TGI: "> 100 µM"

## Task Name the recorded TGI of the molecule listed here: CCCCC[Se]c1nc([Se]CCCCC)c2ccccc2n1
## Result > 100 µM

Origin of measurements: ChEMBL document CHEMBL1926588
